Attribution: patent US20030091584A1

Recorded EC50 (nM), in vitro microneutralization of RSV Long by entry
measured on: F protein of wild type RSV A/Long (respiratory syncytial virus strain …, UniProt P12568 26-574)
Sequence (P12568 26-574): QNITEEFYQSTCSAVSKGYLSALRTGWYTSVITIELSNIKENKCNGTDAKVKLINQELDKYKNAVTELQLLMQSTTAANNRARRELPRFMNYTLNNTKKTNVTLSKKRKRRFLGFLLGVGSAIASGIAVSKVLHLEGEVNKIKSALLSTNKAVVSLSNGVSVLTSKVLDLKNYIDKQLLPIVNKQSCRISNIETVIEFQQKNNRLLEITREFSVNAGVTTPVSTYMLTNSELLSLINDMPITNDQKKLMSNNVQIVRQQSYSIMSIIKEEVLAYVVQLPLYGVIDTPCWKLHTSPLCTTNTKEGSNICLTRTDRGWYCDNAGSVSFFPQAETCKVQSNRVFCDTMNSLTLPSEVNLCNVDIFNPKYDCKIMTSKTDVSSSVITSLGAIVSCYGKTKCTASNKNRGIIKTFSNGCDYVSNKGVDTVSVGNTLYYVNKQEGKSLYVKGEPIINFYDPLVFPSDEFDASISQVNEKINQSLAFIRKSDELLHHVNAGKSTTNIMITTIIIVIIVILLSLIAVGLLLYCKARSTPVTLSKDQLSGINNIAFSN
test details: cell-based or functional assay
Entry rule: numbers only, all in nM.

binder: A1e9 (Fab fragment) (Fab, V domains shown, Fab; also called *Ale9) VH: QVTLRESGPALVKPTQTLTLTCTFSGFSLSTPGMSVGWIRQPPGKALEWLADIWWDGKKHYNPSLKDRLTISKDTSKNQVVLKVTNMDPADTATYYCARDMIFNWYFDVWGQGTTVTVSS VL: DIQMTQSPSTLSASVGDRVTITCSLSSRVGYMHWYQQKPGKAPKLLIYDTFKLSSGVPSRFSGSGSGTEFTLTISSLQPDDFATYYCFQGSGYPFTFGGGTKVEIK
readout units: nM
reported value: 2.5

**Q:** Please look at this binder and report its EC50 (nM), in vitro microneutralization of RSV Long: P12f4 (Fab fragment) (Fab, V domains shown, Fab) VH: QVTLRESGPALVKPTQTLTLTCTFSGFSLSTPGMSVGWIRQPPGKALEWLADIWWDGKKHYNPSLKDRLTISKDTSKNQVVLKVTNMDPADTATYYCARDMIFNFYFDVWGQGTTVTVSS VL: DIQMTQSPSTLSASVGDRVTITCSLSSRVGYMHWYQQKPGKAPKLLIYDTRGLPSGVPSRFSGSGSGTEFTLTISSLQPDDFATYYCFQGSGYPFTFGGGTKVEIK
**A:** 0.7

**Q:** Please look at this binder and report its EC50 (nM), in vitro microneutralization of RSV Long: SYNAGIS® (monoclonal antibody) (antibody, V domains shown, also called SYNAGIS ®/SYNAGIS ® (HC/LC)) VH: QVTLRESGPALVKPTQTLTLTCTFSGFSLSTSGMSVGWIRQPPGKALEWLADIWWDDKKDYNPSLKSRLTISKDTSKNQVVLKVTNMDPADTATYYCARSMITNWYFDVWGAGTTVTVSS VL: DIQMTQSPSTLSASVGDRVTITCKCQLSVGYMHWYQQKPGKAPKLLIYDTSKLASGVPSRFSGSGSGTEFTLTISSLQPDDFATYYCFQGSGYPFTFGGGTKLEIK
**A:** 3.57
